- target system: UGT73A17 (rUGT73A17, CsUGT73A17) (Camellia sinensis, UniProt W6JMN6, L296I/A466V, form not given)
- Construct: gene CsUGTC1; full-length ORF (1422 bp, 473 residues) from tea EST library, N-terminal MBP fusion (pMAL-c2X), E. coli Novablue, purified
- Sequence (W6JMN6 entry or part of it L296I/A466V, form open): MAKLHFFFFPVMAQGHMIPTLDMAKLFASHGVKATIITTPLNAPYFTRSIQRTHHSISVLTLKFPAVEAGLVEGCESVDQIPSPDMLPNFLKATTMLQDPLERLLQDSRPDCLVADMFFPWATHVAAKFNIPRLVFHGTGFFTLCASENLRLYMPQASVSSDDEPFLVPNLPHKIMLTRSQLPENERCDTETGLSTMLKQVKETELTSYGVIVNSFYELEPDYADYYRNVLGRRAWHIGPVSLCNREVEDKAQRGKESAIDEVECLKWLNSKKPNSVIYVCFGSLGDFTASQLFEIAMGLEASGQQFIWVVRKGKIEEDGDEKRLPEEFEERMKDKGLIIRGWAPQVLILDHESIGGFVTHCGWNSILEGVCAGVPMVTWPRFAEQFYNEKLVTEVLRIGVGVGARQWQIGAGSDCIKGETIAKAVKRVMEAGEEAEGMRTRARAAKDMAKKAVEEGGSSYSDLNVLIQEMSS
- protocol description: HPLC product quantification, Lineweaver-Burk
- Format: biochemical
- cond: UDP-glucose as sugar donor, 100 mM Tris-HCl pH 7.0, 30°C
measurement name: Km (µM)

Worked cases, answers included:
[[record]]
compound = "O=c1cc(-c2ccc(O)c(O)c2)oc2cc(O)cc(O)c12"
measurement_name = "Km"
reported = 3.2

[[record]]
compound = "O=C1C[C@@H](c2ccc(O)cc2)Oc2cc(O)cc(O)c21"
measurement_name = "Km"
reported = 9.5

[[record]]
compound = "O=c1c(O)c(-c2ccc(O)cc2)oc2cc(O)cc(O)c12"
measurement_name = "Km"
reported = 5.2

[[record]]
compound = "O=c1cc(-c2cc(O)c(O)c(O)c2)oc2cc(O)cc(O)c12"
measurement_name = "Km"
reported = 4.6


[P] O=c1cc(-c2ccc(O)cc2)oc2cc(O)cc(O)c12
[Q] O=C(O[C@H]1Cc2c(O)cc(O)cc2O[C@H]1c1ccc(O)c(O)c1)c1cc(O)c(O)c(O)c1 [epicatechin gallate]
[R] O=c1c(O)c(-c2cc(O)c(O)c(O)c2)oc2cc(O)cc(O)c12
Parameters: sort_field (Km), sort_dir (desc). API: response body holds the labels in the requested order.
Q, R, P
(Q: 77 µM, R: 8.8 µM, P: 5.5 µM)
